- Tested on: PKC mediated IL-2 production
- Assay Explanation: IL-2 ELISA, human primary T cell, anti CD3+CD28+
- Format: cell-based
- Test Conditions: Homo sapiens, T-cell, 24 h, human primary T cells stimulated with αCD3 and αCD28, 24 hours
Here, each record is paired with measured EC50 data.

Answered cases to consult:
> print(dat)
                                   compound                        system  recorded.value
1  Cn1nc2n(c1=O)-c1cc(Nc3ncc(F)c(N[C@@H]4C[C@@H]5CCCN5C(C)(C)C4)n3)ccc1OC2  PKC mediated IL-2 production   100 to 500 nM
2  CC(O)COc1ccc(Nc2ncc(F)c(N[C@@H]3C[C@@H]4CCCN4C(C)(C)C3)n2)cc1C#N (some centres unmarked)  PKC mediated IL-2 production   100 to 500 nM
3  Cn1nnn(-c2cc(Nc3ncc(F)c(N[C@@H]4C[C@@H]5CCCN5C(C)(C)C4)n3)c(F)cc2OC(C)(C)CO)c1=O  PKC mediated IL-2 production   100 to 500 nM
4  CC1(C)CC(Nc2nc(Nc3ccc(O[C@H]4CCOC4)c(C#N)c3)ncc2F)CC2CCCN21 (mixture of isomers)  PKC mediated IL-2 production   100 to 500 nM
5  CC1(C)C[C@H](Nc2nc(Nc3ccc4c(c3)-n3nnnc3C3(CCOCC3)O4)ncc2F)C[C@@H]2CCCN21  PKC mediated IL-2 production        < 100 nM
6  CC1(C)C[C@H](Nc2nc(Nc3ccc4c(c3)OCC(=O)N4CC3CC3)ncc2F)C[C@@H]2CCCN21  PKC mediated IL-2 production   100 to 500 nM

Exercise: Need EC50 of `COc1cc(Nc2ncc(F)c(N[C@@H]3C[C@@H]4CCCN4C(C)(C)C3)n2)cc(OC)c1` , thanks.
Key: 500 to 1000 nM

###

- Tested on: PKC mediated IL-2 production
- Assay Explanation: IL-2 ELISA, human primary T cell, anti CD3+CD28+
- Type: cell-based
- Test Conditions: T-cell, human primary T cells stimulated with αCD3 and αCD28, 24 hours
Each entry below carries its recorded EC50.

Exercise: Need EC50, item CC1(C)C[C@H](N(CC(O)CO)c2nc(Nc3ccc(OCC(O)CO)c(C#N)c3)ncc2F)C[C@@H]2CCCN21 (stereo partly shown) [Compound 211]
Key: 1 to 10 µM

Exercise: What value of EC50 has been reported for the following compound? CC(O)COc1cc(F)c(Nc2ncc(F)c(N[C@@H]3C[C@@H]4CCCN4C(C)(C)C3)n2)cc1-n1nnn(C)c1=O (stereo partly shown) [Compound 200]
Key: < 0.1 µM

Exercise: Any idea what its EC50 is? The compound is [2H]C([2H])(O)C([2H])([2H])Oc1cc(F)c(Nc2ncc(F)c(N[C@@H]3C[C@@H]4CCCN4C(C)(C)C3)n2)cc1-n1nnn(C)c1=O [Compound 221]
Key: < 0.1 µM

Exercise: State the recorded EC50 for this entry: Cn1nc2n(c1=O)-c1cc(Nc3ncc(F)c(N[C@@H]4C[C@@H]5CCCN5C(C)(C)C4)n3)ccc1OC2(CO)CO[Si](C)(C)C(C)(C)C (stereo partly shown) [Compound 287]
Key: 1 to 10 µM

###

- Tested on: PKC mediated IL-2 production
- Assay Explanation: IL-2 ELISA, human primary T cell, anti CD3+CD28+
- Format: cell-based
- Test Conditions: Homo sapiens, T-cell, 24 h, human primary T cells stimulated with αCD3 and αCD28, 24 hours
- Procedure: Compounds 1-328 were tested in a whole cell functional assay for PKC mediated IL-2 production as follows. Human primary T cell isolation and culture: Human primary T cells were prepared as follows. Whole blood was obtained from a healthy volunteer, mixed 1:1 with PBS, layered on to Ficoll Hypaque (Amersham Pharmacia Biotech, Piscataway, N.J., Catalog #17-1440-03) in 2:1 blood/PBS:ficoll ratio and centrifuged for 30 minutes at 4° C. at 1750 rpm. […]
EC50 by entry:

// worked examples, EC50 included
> print(dat)
                                   molecule                        system  recorded.value
1  COc1ccc(Nc2ncc(F)c(N[C@@H]3C[C@@H]4CCCN4C(C)(C)C3)n2)cc1-n1nn[nH]c1=O  PKC mediated IL-2 production         > 10 µM
2  CC1(C)C[C@H](Nc2nc(Nc3ccc(F)c(-n4nnnc4C4CC4)c3)ncc2F)C[C@@H]2CCCN21  PKC mediated IL-2 production        < 0.1 µM
3  CC1(C)C[C@H](Nc2nc(Nc3ccc(O[C@H]4CCNC[C@@H]4F)c(Cl)c3)ncc2F)C[C@@H]2CCCN21  PKC mediated IL-2 production        < 0.1 µM
4  CC1(C)C[C@H](Nc2nc(Nc3cccc(-n4nnnc4SCCO)c3)ncc2F)C[C@@H]2CCCN21  PKC mediated IL-2 production        < 0.1 µM
5  CC1(C)C[C@H](Nc2nc(Nc3ccc(O[C@H]4CCNC[C@@H]4F)c(C(F)(F)F)c3)ncc2F)C[C@@H]2CCCN21  PKC mediated IL-2 production        < 0.1 µM
6  Cc1ccc(Nc2ncc(F)c(N[C@@H]3C[C@@H]4CCCN4C(C)(C)C3)n2)cc1-n1nnn(CCO)c1=O  PKC mediated IL-2 production   0.1 to 0.5 µM

Exercise: Please state recorded EC50 (tested on PKC mediated IL-2 production) of Cn1nnn(-c2cc(Nc3ncc(F)c(N[C@@H]4C[C@@H]5CCCN5C(C)(C)C4)n3)c(F)cc2OC2CC(O)C2)c1=O (stereo partly shown)
Key: 0.1 to 0.5 µM

###

- Tested on: PKC mediated IL-2 production
- Assay Explanation: IL-2 ELISA, human primary T cell, anti CD3+CD28+
- Type: cell-based
- Test Conditions: Homo sapiens, T-cell, 24 h, human primary T cells stimulated with αCD3 and αCD28, 24 hours
EC50 values by entry

Check out these entries, answers already filled in.
> print(dat)
                                   molecule  quantity.kind  recorded.value
1  CC1(C)C[C@H](Nc2nc(Nc3cccc(-n4nnnc4SC4COC4)c3)ncc2F)C[C@@H]2CCCN21           EC50        < 100 nM
2  C[C@H](CO)COc1cc(F)c(Nc2ncc(F)c(N[C@@H]3C[C@@H]4CCCN4C(C)(C)C3)n2)cc1-n1nnn(C)c1=O           EC50   100 to 500 nM

Exercise: Any idea what EC50 was measured for `COCCOc1ccc(Nc2ncc(F)c(N[C@@H]3C[C@@H]4CCCN4C(C)(C)C3)n2)c(F)c1OCCOC` ?
Key: 1000 to 10000 nM

Exercise: Recorded EC50 for `COc1ccc(Nc2ncc(F)c(N[C@@H]3C[C@@H]4CCCN4C(C)(C)C3)n2)cc1-n1nnnc1C` , please?
Key: < 100 nM

Exercise: Would you mind telling me what EC50 value was observed for Cn1nnn(-c2cc(Nc3ncc(F)c(N[C@@H]4C[C@@H]5CCC(=O)N5C(C)(C)C4)n3)c(F)cc2C2CC2)c1=O (racemic) ?
Key: 1000 to 10000 nM

Exercise: Name the reported EC50 value associated with the molecule CC1(C)CC[C@H]2C[C@@H](Nc3nc(Nc4ccc(OC5CC(O)C5)c(C#N)c4)ncc3F)CCN21 (stereo partly shown)
Key: 100 to 500 nM

Exercise: # input molecule: CC1(C)C[C@H](Nc2nc(Nc3ccc(OCC4CCO4)c(C#N)c3)ncc2F)C[C@@H]2CCCN21 (stereo partly shown) ; wanted: its EC50
Key: 100 to 500 nM

###

- Tested on: PKC mediated IL-2 production
- Assay Explanation: IL-2 ELISA, human primary T cell, anti CD3+CD28+
- Format: cell-based
- Test Conditions: Homo sapiens, T-cell, 24 h, human primary T cells stimulated with αCD3 and αCD28, 24 hours
pEC50: −log10 of the molar value.
# pEC50 annotations

> print(dat)
                                   molecule                        system  quantity.kind  recorded.value
1  CC1(C)CC(Nc2nc(Nc3ccc(O[C@@H]4CCOC4)c(C#N)c3)ncc2F)CC2CCCN21 (mixture of isomers) [Compound 57]  PKC mediated IL-2 production          pEC50    6.30 to 7.00

Exercise: Data request, read-out pEC50, for Cn1nnn(-c2cc(Nc3ncc(F)c(N[C@@H]4C[C@@H]5CCCN5C(C)(C)C4)n3)c(F)cc2OCC(=O)C(=O)O)c1=O [Compound 171]
Key: < 5.00

Exercise: Consider the molecule shown here: CC1(C)C[C@H](Nc2nc(Nc3ccc(Cl)c(-n4nnnc4C4CC4)c3)ncc2F)C[C@@H]2CCCN21 [Compound 145] What is its recorded pEC50?
Key: > 7.00

Exercise: Given CC1(C)Oc2ccc(Nc3ncc(F)c(N[C@@H]4C[C@@H]5CCCN5C(C)(C)C4)n3)cc2-n2c1nn(C1COC1)c2=O [Compound 251] , state its recorded pEC50.
Key: 5.00 to 6.00

Exercise: State the recorded pEC50 for this entry: CC1(C)C[C@H](Nc2nc(Nc3ccc(N4CCOCC4)c(C#N)c3)ncc2F)C[C@@H]2CCCN21 [Compound 106]
Key: 6.30 to 7.00

Exercise: GET /values?readout=pEC50&item= CC1(C)CC[C@H]2C[C@@H](Nc3nc(Nc4ccc(N5CC(O)C5)c(OC(F)F)c4)ncc3F)CCN21 [Compound 308]
Key: 6.00 to 6.30

Exercise: Consider the molecule Cc1ccc(Nc2ncc(Cl)c(N[C@@H]3C[C@@H]4CCCN4C(C)(C)C3)n2)cc1-n1cnnn1 [Compound 147] and give its measured pEC50.
Key: > 7.00
